Molecular target: full-length human CSNK1D (Homo sapiens, UniProt P48730)
Construct: N-terminal Glutathion-S-Transferase (GST) and full-length human CSNK1D; purchased Life Technologies PV3665; host or cells: baculovirus infected insect cells
Sequence (P48730 whole entry): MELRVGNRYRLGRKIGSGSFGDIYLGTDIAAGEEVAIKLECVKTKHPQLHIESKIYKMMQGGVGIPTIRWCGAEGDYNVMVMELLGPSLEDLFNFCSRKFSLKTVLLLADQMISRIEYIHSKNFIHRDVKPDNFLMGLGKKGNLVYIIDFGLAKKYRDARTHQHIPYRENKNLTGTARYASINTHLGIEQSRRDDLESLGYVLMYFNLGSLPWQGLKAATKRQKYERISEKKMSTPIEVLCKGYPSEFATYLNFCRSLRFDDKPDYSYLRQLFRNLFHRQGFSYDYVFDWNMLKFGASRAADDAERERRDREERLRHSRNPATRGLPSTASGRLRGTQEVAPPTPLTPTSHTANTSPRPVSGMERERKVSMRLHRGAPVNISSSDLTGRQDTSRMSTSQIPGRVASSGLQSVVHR
Test: CSNK1D Assay (ADP-Glo, 1 μM ATP)
Assay type: biochemical
Settings: Table 3, read-out: CSNK1D IC50 [mol/l] (median)
Experimental Readout: IC50 (nM)
Report as a plain number; the unit nM is understood.

Asked: Could you tell me which IC50 is on file for O=C(Nc1cc(-c2[nH]c3c(Cl)ccnc3c2-c2ccccn2)ccn1)C(CC(F)F)c1ccc(F)cc1 (racemic) [Example 49] ?
Given back: 7.69

Asked: # get_value(readout='IC50', item= COc1cnc2c(-c3ccccn3)c(-c3ccnc(NC(=O)C(CC(F)F)c4ccc(F)cc4)c3)[nH]c2n1 (single isomer, unassigned) [Example 102] )
Given back: 75

Asked: I have this compound here, O=C(Nc1cc(-c2[nH]c3ccnnc3c2-c2ccccn2)ccn1)C(CC(F)F)c1ccc(F)cc1 (single isomer, unassigned) [Example 67] , and I need its recorded IC50.
Given back: 29.7

Asked: Reported IC50 for O=C(Nc1cc(-c2[nH]c3cc(F)cnc3c2-c2ccccc2)ccn1)C(CC(F)F)c1ccc(F)cc1 (single isomer, unassigned; (+)) [Example 21] : what is it?
Given back: 3.59

Asked: Please report the recorded IC50 for O=C(Nc1cc(-c2[nH]c3cncnc3c2-c2ccccn2)ccn1)C(CC(F)F)c1ccc(F)cc1 (single isomer, unassigned; (+)) [Example 15] .
Given back: 3.06

Asked: Could you share which IC50 value was measured for O=C(Nc1cc(-c2[nH]c3cc(F)cnc3c2-c2ccccn2)ccn1)C(CC(F)F)c1ccc(F)cc1 (single isomer, unassigned; (-)) [Example 18] ?
Given back: 25.4

Asked: Given the entry O=C(Nc1cc(-c2[nH]c3c(OCC(F)F)ncnc3c2-c2ccccn2)ccn1)C(CC(F)F)c1ccc(F)cc1 (racemic) [Example 78] , report its measured IC50.
Given back: 5.15

Asked: Which IC50 is listed for O=C(Nc1cc(-c2[nH]c3c(OCC(F)(F)F)ncnc3c2-c2ccccn2)ccn1)C(CC(F)F)c1ccc(F)cc1 (single isomer, unassigned) [Example 124] ?
Given back: 46.6

Asked: // IC50 lookup, key: CN1CCN(c2cc(F)nc3c(-c4ccccn4)c(-c4ccnc(NC(=O)C(CC(F)F)c5ccc(F)cc5)c4)[nH]c23)CC1 (racemic) [Example 56]
Given back: 6.67

Asked: Reported IC50, compound Cc1ccc2[nH]c(-c3ccnc(NC(=O)C(CC(F)F)c4ccc(F)cc4)c3)c(-c3ccccn3)c2n1 (racemic) [Example 4] : ____
Given back: 9.45

Asked: Would you kindly share the measured IC50 for Cc1cnc2c(-c3ccccn3)c(-c3ccnc(NC(=O)C(CC(F)F)c4ccc(F)cc4)c3)[nH]c2c1 (single isomer, unassigned) [Example 9] ?
Given back: 32.8

Asked: Dear colleague, I am looking for the recorded IC50 of the following compound: O=C(Nc1cc(-c2[nH]c3c(O[C@H]4CCOC4)cc(F)nc3c2-c2ccccn2)ccn1)C(CC(F)F)c1ccc(F)cc1 (single isomer, unassigned) [Example 54]
Given back: 3.7

---

Target: full-length human CSNK1A1 (Homo sapiens)
Construct: N-terminal Glutathion-S-Transferase (GST) and full-length human CSNK1A1; purchased Life Technologies PV4174; host or cells: baculovirus infected insect cells
Sequence (P48729 whole entry): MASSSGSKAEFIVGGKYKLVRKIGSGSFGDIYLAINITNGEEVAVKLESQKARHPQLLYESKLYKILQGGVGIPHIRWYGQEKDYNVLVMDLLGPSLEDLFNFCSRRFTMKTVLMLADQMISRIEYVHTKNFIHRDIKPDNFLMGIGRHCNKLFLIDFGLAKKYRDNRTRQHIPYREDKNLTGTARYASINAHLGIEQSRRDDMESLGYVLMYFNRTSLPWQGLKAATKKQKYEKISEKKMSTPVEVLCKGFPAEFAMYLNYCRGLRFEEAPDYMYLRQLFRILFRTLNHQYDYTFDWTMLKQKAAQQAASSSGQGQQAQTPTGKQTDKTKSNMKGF
Assay: CSNK1A1 Assay 2 (ADP-Glo, 1 μM ATP, substrate biotin-Ahx-KRRRAL-pS-VASLPGL)
Type: biochemical
Details: Table 3, read-out: CSNK1A1 Assay 2 IC50 [mol/l] (median)
Experimental Readout: pIC50
Worth noting: pIC50 values are minus log10 of concentrations stated in mol/L.

Asked: What pIC50 value was documented for this molecule, O=C(Nc1cc(-c2[nH]c3c(OC[C@H]4COCCO4)cc(F)nc3c2-c2ccccn2)ccn1)C(CC(F)F)c1ccc(F)cc1 (mixture of isomers) [Example 50] ?
Given back: 8.03

Asked: Can you share its pIC50? I mean this molecule: O=C(Nc1cc(-c2[nH]c3cncnc3c2-c2ccccn2)ccn1)C(CC(F)F)c1ccc(F)cc1 (single isomer, unassigned; (-)) [Example 14]
Given back: 7.79

Asked: Could you share which pIC50 value was measured for O=C(Nc1cc(-c2[nH]c3c(OCC(F)F)ccnc3c2-c2ccccn2)ccn1)C(CC(F)F)c1ccc(F)cc1 (racemic) [Example 75] ?
Given back: 8.36

Asked: So what does the record say about pIC50 for Cc1cc(F)nc2c(-c3ccccn3)c(-c3ccnc(NC(=O)C(CC(F)F)c4ccc(F)cc4)c3)[nH]c12 (single isomer, unassigned; (-)) [Example 38] ?
Given back: 8.65

Asked: What value of pIC50 has been recorded for this entry: COc1ncnc2c(-c3ccccn3)c(-c3ccnc(NC(=O)C(CC(F)F)c4ccc(F)cc4)c3)[nH]c12 (stereo not drawn) [Example 113]
Given back: 8.43

Asked: What does the record list as pIC50 for O=C(Nc1cc(-c2[nH]c3nccnc3c2-c2ccccn2)ccn1)[C@@H](CC(F)F)c1ccc(F)cc1 (single isomer, unassigned) [Example 32] ?
Given back: 8.86

---

Observed IC50 values for full-length human CSNK1D (Homo sapiens, UniProt P48730) are listed in what follows.
Give the number; nM is assumed, so skip it.

Asked: GET /values?readout=IC50&item= O=C(Nc1cc(-c2[nH]c3c(OCC4CC4)ncnc3c2-c2ccccn2)ccn1)C(CC(F)F)c1ccc(F)cc1 (single isomer, unassigned) [Example 130]
Given back: 55.8

Asked: Fill in: IC50 of O=C(Nc1cc(-c2[nH]c3c(O[C@H]4CCOC4)cc(F)nc3c2-c2ccccn2)ccn1)C(CC(F)F)c1ccc(F)cc1 (mixture of isomers) [Example 53] is ___
Given back: 7.31

Asked: Recorded IC50 for O=C(Nc1cc(-c2[nH]c3c(O[C@H]4CCOC4)cc(F)nc3c2-c2ccccn2)ccn1)C(CC(F)F)c1ccc(F)cc1 (single isomer, unassigned) [Example 55] , please?
Given back: 24.9

Asked: Query: IC50; subject: COc1cnc2c(-c3ccccn3)c(-c3ccnc(NC(=O)C(CC(F)F)c4ccc(F)cc4)c3)[nH]c2c1 (single isomer, unassigned) [Example 82]
Given back: 3.17

Asked: Reported IC50 for O=C(Nc1cc(-c2[nH]c3c(CC4CC4)cc(F)nc3c2-c2ccccn2)ccn1)C(CC(F)F)c1ccc(F)cc1 (single isomer, unassigned) [Example 48] : what is it?
Given back: 6.99

Asked: Find the recorded IC50 belonging to Cc1cc(F)nc2c(-c3ccccn3)c(-c3ccnc(NC(=O)C(CC(F)F)c4ccc(F)cc4)c3)[nH]c12 (single isomer, unassigned; (-)) [Example 38] and report it.
Given back: 3.8

Asked: Give its IC50 value. Item: O=C(Nc1cc(-c2[nH]c3ccc(F)nc3c2-c2ccc(F)cn2)ccn1)C(CC(F)F)c1ccc(F)cc1 (single isomer, unassigned; (-)) [Example 110]
Given back: 43

Asked: Look up IC50 for this molecule: Cc1cc2[nH]c(-c3ccnc(NC(=O)C(CC(F)F)c4ccc(F)cc4)c3)c(-c3ccccn3)c2nc1F (racemic) [Example 33]
Given back: 37.3

Asked: Find the recorded IC50 belonging to O=C(Nc1cc(-c2[nH]c3cccnc3c2-c2ccccn2)ccn1)C(CC(F)F)c1ccc(F)cc1 (single isomer, unassigned; (+)) [Example 11] and report it.
Given back: 2.57

Asked: What measured IC50 goes with O=C(Nc1cc(-c2[nH]c3c(OCC4CC4)ncnc3c2-c2ccccn2)ccn1)C(CC(F)F)c1ccc(F)cc1 (single isomer, unassigned) [Example 129] ?
Given back: 5.94

Asked: What value of IC50 has been recorded for this entry: O=C(Nc1cc(-c2[nH]c3ccc(F)nc3c2-c2ccc(F)cn2)ccn1)C(CC(F)F)c1ccc(F)cc1 (stereo not drawn) [Example 108]
Given back: 5.93

Asked: GET /values?readout=IC50&item= O=C(Nc1cc(-c2[nH]c3cccnc3c2-c2ncccn2)ccn1)C(CC(F)F)c1ccc(F)cc1 (racemic)
Given back: 16.9

Asked: Using the record for O=C(Nc1cc(-c2[nH]c3ncc(F)nc3c2-c2ccccn2)ccn1)C(CC(F)F)c1ccc(F)cc1 (racemic) [Example 62] , report its IC50.
Given back: 8.9

Asked: Would you kindly share the measured IC50 for COCCOc1cc(F)nc2c(-c3ccccn3)c(-c3ccnc(NC(=O)C(CC(F)F)c4ccc(F)cc4)c3)[nH]c12 (single isomer, unassigned) ?
Given back: 23.4

Asked: Quick one: IC50 of COc1cnc2c(-c3ccccn3)c(-c3ccnc(NC(=O)C(CC(F)F)c4ccc(F)cc4)c3)[nH]c2n1 (stereo not drawn) [Example 101] ?
Given back: 9.17

Asked: Which value of IC50 has been reported for O=C(Nc1cc(-c2[nH]c3c(O[C@H]4CCOC4)ncnc3c2-c2ccccn2)ccn1)C(CC(F)F)c1ccc(F)cc1 (mixture of isomers) [Example 72] in the records?
Given back: 7.3

Asked: Which value of IC50 has been reported for O=C(Nc1cc(-c2[nH]c3ccc(F)nc3c2-c2ccccn2)ccn1)[C@@H](CC(F)F)c1ccc(F)cc1 (single isomer, unassigned) in the records?
Given back: 2.63

Asked: What value of measured IC50 is listed for O=C(Nc1cc(-c2[nH]c3c(N4CCNCC4)ccnc3c2-c2ccccn2)ccn1)C(CC(F)F)c1ccc(F)cc1 (single isomer, unassigned) [Example 94] ?
Given back: 3.67

Asked: Entry O=C(Nc1cc(-c2[nH]c3cc(F)cnc3c2-c2ccccn2)ccn1)C(CO)c1ccc(F)cc1 (racemic) : reported IC50 = ?
Given back: 12.8

Asked: Report IC50 for O=C(Nc1cc(-c2[nH]c3ccc(F)nc3c2-c2ccccn2)ccn1)C(CC(F)F)c1ccc(F)cc1 (racemic) please.
Given back: 15.7

Asked: For the molecule shown here, O=C(Nc1cc(-c2[nH]c3c(O[C@H]4CCOC4)ncnc3c2-c2ccccn2)ccn1)C(CC(F)F)c1ccc(F)cc1 (single isomer, unassigned) [Example 74] , give the reported IC50.
Given back: 55.4

Asked: Which IC50 reading was recorded for the molecule Cc1cnc2c(-c3ccccn3)c(-c3ccnc(NC(=O)C(CC(F)F)c4ccc(F)cc4)c3)[nH]c2c1 (racemic) [Example 7] ?
Given back: 4.13

Asked: Can you look up the measured IC50 of COc1cc(F)nc2c(-c3ccccn3)c(-c3ccnc(NC(=O)C(CC(F)F)c4ccc(F)cc4)c3)[nH]c12 (racemic) [Example 39] for me?
Given back: 40.2

Asked: # lookup: IC50 of O=C(Nc1cc(-c2[nH]c3ccc(F)nc3c2-c2cc(F)ccn2)ccn1)C(CC(F)F)c1ccc(F)cc1 (single isomer, unassigned) [Example 96]
Given back: 10.4
